// reported Emax at 1 µM for each item listed
SYSTEM: 5HT2B receptor (Homo sapiens, UniProt P41595)
Sequence (P41595 whole entry): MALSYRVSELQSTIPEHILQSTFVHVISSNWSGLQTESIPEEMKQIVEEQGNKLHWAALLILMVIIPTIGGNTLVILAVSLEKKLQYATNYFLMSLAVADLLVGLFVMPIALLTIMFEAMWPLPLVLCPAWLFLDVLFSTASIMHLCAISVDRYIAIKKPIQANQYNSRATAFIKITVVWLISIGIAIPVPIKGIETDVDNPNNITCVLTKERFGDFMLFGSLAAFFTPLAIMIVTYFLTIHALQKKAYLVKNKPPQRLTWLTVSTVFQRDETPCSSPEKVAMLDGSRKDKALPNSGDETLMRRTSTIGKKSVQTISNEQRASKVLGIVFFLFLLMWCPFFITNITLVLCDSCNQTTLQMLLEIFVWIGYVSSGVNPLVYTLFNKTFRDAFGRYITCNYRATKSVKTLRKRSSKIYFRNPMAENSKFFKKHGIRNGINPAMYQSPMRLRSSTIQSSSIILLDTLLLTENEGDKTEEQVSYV
ASSAY NOTES: Positive allosteric modulation of 5HT2B receptor (unknown origin) expressed in HEK293 cells co-expressing NFAT-RE assessed as increase in serotonin-induced reponse at 1 uM after 6 to 12 hrs by Bright-Glo luciferase reporter gene assay relative to serotonin
Assay type: cell-based
TEST CONDITIONS: HEK293 cells expressing 5HT2B receptor and NFAT-RE reporter
# include the unit after the value

Record excerpt, results attached:
> print(dat)
                        structure.as.smiles                                    system  recorded.value
1              O=C(c1ccc(-n2ccnc2)cc1)C1CC1  5HT2B receptor (Homo sapiens, UniProt P41595)            119%
2  O=C(c1ccc(-n2cnc([N+](=O)[O-])c2)cc1)C1CC1  5HT2B receptor (Homo sapiens, UniProt P41595)            123%

Reported Emax at 1 µM, compound `O=C(c1ccc(N2CCN(Cc3ccccc3)CC2)cc1)C1CC1` : ____
118%

====

SYSTEM: 5-hydroxytryptamine receptor 2C (Homo sapiens)
ASSAY NOTES: Positive allosteric modulation of 5HT2C receptor (unknown origin) expressed in HEK293 cells co-expressing NFAT-RE assessed as increase in serotonin-induced reponse at 10 uM after 6 to 12 hrs by Bright-Glo luciferase reporter gene assay relative to serotonin
Format: cell-based
Activity calls are given as the source filed them. No cut-off for these calls is given here.
QUANTITY: Activity

Record excerpt, results attached:
> print(dat)
                                   compound                                    system  quantity  recorded.value
1  OC(c1ccc(-n2ccnc2)cc1)C1CC1 (stereo unspecified)  5-hydroxytryptamine receptor 2C (Homo sapiens)  Activity        inactive
2       Nc1ncnc2c1ncn2-c1ccc(C(=O)C2CC2)cc1  5-hydroxytryptamine receptor 2C (Homo sapiens)  Activity        inactive
3           O=C(c1ccc(NCCCn2ccnc2)cc1)C1CC1  5-hydroxytryptamine receptor 2C (Homo sapiens)  Activity        inactive
4        C=CCN1CCN(c2ccc(C(=O)C3CC3)cc2)CC1  5-hydroxytryptamine receptor 2C (Homo sapiens)  Activity        inactive
5              O=C(c1ccc(-n2ccnc2)cc1)C1CC1  5-hydroxytryptamine receptor 2C (Homo sapiens)  Activity          Active

Reported Activity, compound `O=C(c1ccc(N2CCN(C(c3ccccc3)c3ccccc3)CC2)cc1)C1CC1` : ____
inactive

Reported Activity, compound Nc1ncnc2c1ncn2-c1ccc(C(O)C2CC2)cc1 (stereo unspecified) : ____
inactive

Reported Activity, compound `O=C(c1ccc(Nc2nc3ccc(F)cc3s2)cc1)C1CC1` : ____
inactive

Reported Activity, compound `O=C(c1ccc(N2CCN(Cc3ccc4c(c3)OCO4)CC2)cc1)C1CC1` : ____
inactive

Reported Activity, compound `Cc1cccc2sc(Nc3ccc(C(=O)C4CC4)cc3)nc12` : ____
inactive

Reported Activity, compound `O=C(c1ccc(-n2cnc([N+](=O)[O-])c2)cc1)C1CC1` : ____
Active

====

SYSTEM: 5-hydroxytryptamine receptor 2A (Homo sapiens)
Sequence (P28223 whole entry): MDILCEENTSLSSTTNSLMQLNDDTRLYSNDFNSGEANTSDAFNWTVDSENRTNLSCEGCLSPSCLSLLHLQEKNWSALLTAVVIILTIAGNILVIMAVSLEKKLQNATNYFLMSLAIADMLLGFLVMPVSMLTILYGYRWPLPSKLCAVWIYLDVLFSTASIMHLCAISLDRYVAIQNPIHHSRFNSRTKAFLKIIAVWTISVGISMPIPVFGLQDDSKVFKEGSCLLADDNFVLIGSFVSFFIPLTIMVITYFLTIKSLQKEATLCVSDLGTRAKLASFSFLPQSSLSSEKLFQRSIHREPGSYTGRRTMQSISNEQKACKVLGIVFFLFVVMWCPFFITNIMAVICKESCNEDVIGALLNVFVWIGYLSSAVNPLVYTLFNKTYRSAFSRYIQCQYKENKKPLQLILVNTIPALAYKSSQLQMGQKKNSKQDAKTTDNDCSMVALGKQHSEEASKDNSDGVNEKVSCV
ASSAY NOTES: Positive allosteric modulation of 5HT2A receptor (unknown origin) expressed in HEK293 cells co-expressing NFAT-RE assessed as increase in serotonin-induced reponse after 6 to 12 hrs by Bright-Glo luciferase reporter gene assay
QUANTITY: EC50 (nM)
Report only the number, with the unit nM understood.

Record excerpt, results attached:
> print(dat)
                        structure.as.smiles  recorded.value
1  O=C(c1ccc(-n2cnc([N+](=O)[O-])c2)cc1)C1CC1            45.7
2              O=C(c1ccc(-n2ccnc2)cc1)C1CC1            50.1

Reported EC50, compound `O=C(c1ccc(N2CCN(Cc3ccccc3)CC2)cc1)C1CC1` : ____
38

====

SYSTEM: 5-hydroxytryptamine receptor 2C (Homo sapiens, UniProt P28335)
Sequence (P28335 whole entry): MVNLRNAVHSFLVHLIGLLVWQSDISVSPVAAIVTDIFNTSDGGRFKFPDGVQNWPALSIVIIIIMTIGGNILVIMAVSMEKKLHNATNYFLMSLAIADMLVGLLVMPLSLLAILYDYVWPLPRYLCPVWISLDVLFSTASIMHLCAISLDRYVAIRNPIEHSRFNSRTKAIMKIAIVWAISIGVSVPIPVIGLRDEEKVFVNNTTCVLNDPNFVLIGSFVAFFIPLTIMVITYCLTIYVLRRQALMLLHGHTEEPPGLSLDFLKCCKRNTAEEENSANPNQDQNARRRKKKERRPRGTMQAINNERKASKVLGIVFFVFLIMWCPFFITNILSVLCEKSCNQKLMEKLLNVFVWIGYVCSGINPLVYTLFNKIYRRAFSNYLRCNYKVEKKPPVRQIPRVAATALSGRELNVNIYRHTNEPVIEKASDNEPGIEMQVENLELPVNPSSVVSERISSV
ASSAY NOTES: Positive allosteric modulation of 5HT2C receptor (unknown origin) expressed in HEK293 cells co-expressing NFAT-RE assessed as increase in serotonin-induced reponse after 6 to 12 hrs by Bright-Glo luciferase reporter gene assay
QUANTITY: pEC50
FYI, pEC50 means -log10 of a concentration in mol per litre.

Record excerpt, results attached:
> print(dat)
                       structure.as.smiles  quantity  recorded.value
1             O=C(c1ccc(-n2ccnc2)cc1)C1CC1     pEC50            8.37
2  O=C(c1ccc(N2CCN(Cc3ccccc3)CC2)cc1)C1CC1     pEC50            8.30

Field: next molecule
Reported pEC50, molecule `O=C(c1ccc(-n2cnc([N+](=O)[O-])c2)cc1)C1CC1` : ____
8.38

====

SYSTEM: 5HT2A receptor (Homo sapiens)
Sequence (P28223 whole entry): as the sequence (P28223 whole entry) above
ASSAY NOTES: Positive allosteric modulation of 5HT2A receptor (unknown origin) expressed in HEK293 cells co-expressing NFAT-RE assessed as increase in serotonin-induced reponse at 1 uM after 6 to 12 hrs by Bright-Glo luciferase reporter gene assay relative to serotonin
Format: cell-based
TEST CONDITIONS: HEK293 cells expressing 5HT2A receptor and NFAT-RE reporter
QUANTITY: Emax at 1 µM (%)
Report only the number, with the unit % understood.

Record excerpt, results attached:
> print(dat)
                        structure.as.smiles      quantity  output.unit  recorded.value
1  O=C(c1ccc(-n2cnc([N+](=O)[O-])c2)cc1)C1CC1  Emax at 1 µM            %             100
2              O=C(c1ccc(-n2ccnc2)cc1)C1CC1  Emax at 1 µM            %              96

Field: next compound
Reported Emax at 1 µM, compound `O=C(c1ccc(N2CCN(Cc3ccccc3)CC2)cc1)C1CC1` : ____
99
